Origin of values: the supplement of paper PMC7156485

- Test system: TDF;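 also: TDF denotes transformed human dermal fibroblasts of mesenchymal origin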
- Assay remarks: cell number relative to DMSO (% of DMSO); higher = more cells (less growth inhibition / toxicity)
- Settings: concentration: 10 µM; 24 h
Parameter threshold = 100. Response is satisfied when cell number meets or exceeds it, else not satisfied.

- Compound: "N#Cc1c(N(CC(=O)[O-])CC(=O)[O-])sc(C(=O)[O-])c1CC(=O)[O-].[Sr+2].[Sr+2]"
  Discrete label: "satisfied"
- Compound: "COc1cc2nc(N(C)CCCNC(=O)C3CCCO3)nc(N)c2cc1OC (configuration not stated)"
  Discrete label: "not satisfied"
- Compound: "C=C[C@]1(C)C[C@@H](OC(=O)CO)[C@]2(C)[C@H](C)CC[C@]3(CCC(=O)[C@H]32)[C@@H](C)[C@@H]1O"
  Discrete label: "satisfied"
- Compound: "CS(=O)(=O)CCNCc1ccc(-c2ccc3ncnc(Nc4ccc(OCc5cccc(F)c5)c(Cl)c4)c3c2)o1.Cc1ccc(S(=O)(=O)O)cc1.Cc1ccc(S(=O)(=O)O)cc1 [Lapatinib ditosylate]"
  Discrete label: "not satisfied"
- Compound: "CCCCCC=CCC=CCC=CCC=CCCCCCC(=O)O [7(Z), 10(Z), 13(Z), 16(Z)-Ocosatetraenoic Acid]"
  Discrete label: "satisfied"

Lookup: Test whether the compound COc1ccc(-c2ccc3c(N4CCOCC4)nc(N4CC(C)OC(C)C4)nc3n2)cc1CO (configuration not stated) records cell number of 100 or higher.
Found: not satisfied

Lookup: Test whether the compound NC(=O)c1noc([C@H](CCCC2CCCCC2)CC(=O)NO)n1 records cell number of 100 or higher.
Found: not satisfied

###

- Test system: HCC1569;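 also: TDF is a line of transformed human dermal fibroblasts of mesenchymal origin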
- Assay remarks: H1.0 immunofluorescence intensity relative to DMSO (% of DMSO); higher = stronger H1.0 induction, active = 140 or more
- Settings: concentration: 10 µM; 24 h
Parameter threshold = 100. Response is true when H1.0 immunofluorescence intensity meets or exceeds it, else false.

- Compound: "CC(C)N=c1cc2n(-c3ccc(Cl)cc3)c3ccccc3nc-2cc1Nc1ccc(Cl)cc1"
  Discrete label: "true"
- Compound: "CCS(=O)(=O)CCn1c([N+](=O)[O-])cnc1C [Tinidazole]"
  Discrete label: "true"
- Compound: "Oc1cccc(-c2nc(N3CCOCC3)c3oc4ncccc4c3n2)c1"
  Discrete label: "true"
- Compound: "CN(C)CCN1C(=O)c2ccccc2N(C)c2ccccc21 [Dibenzepine]"
  Discrete label: "true"
- Compound: "COc1ccccc1N1CCN(CCN(C(=O)c2ccc(I)cc2)c2ccccn2)CC1.Cl [p-MPPI hydrochloride]"
  Discrete label: "false"

Lookup: Test whether the compound CCN1CCCC1CNC(=O)c1c(OC)ccc(Br)c1OC (stereo unspecified) [Remoxipride] records H1.0 immunofluorescence intensity of 100 or higher.
Found: true

Lookup: Test whether the compound CC1=C(C(=O)O)N2C(=O)C(NC(=O)C(N)c3ccccc3)C2SC1 (stereo unspecified) [Cephalexin hydrate] records H1.0 immunofluorescence intensity of 100 or higher.
Found: false

Lookup: Test whether the compound CC1OC(OC2C(Oc3cc(O)c4c(=O)c(O)c(-c5ccc(O)cc5)oc4c3)OC(CO)C(O)C2O)C(O)C(O)C1O (stereo unspecified) [Kaempferol-7-neohesperidoside] records H1.0 immunofluorescence intensity of 100 or higher.
Found: false

Lookup: Test whether the compound CC1C2CCC3C4CC=C5CC(N(C)C)CCC5(C)C4CCC32CN1C (stereo unspecified) [Conessine] records H1.0 immunofluorescence intensity of 100 or higher.
Found: true

Lookup: Test whether the compound O=C(O)c1cc(=O)c2ccccc2[nH]1 [Kynurenic acid] records H1.0 immunofluorescence intensity of 100 or higher.
Found: false

Lookup: Test whether the compound COc1cc(/C=C/C(=O)O)ccc1O [Ferulic acid] records H1.0 immunofluorescence intensity of 100 or higher.
Found: false

Lookup: Test whether the compound CCOC(=O)c1csc(Nc2ccc(Cl)cc2)n1 [ethyl 2-(4-chloroanilino)-1,3-thiazole-4-carboxylate] records H1.0 immunofluorescence intensity of 100 or higher.
Found: true

Lookup: Test whether the compound COc1ccc(CN2CCN(C(c3ccc(F)cc3)c3ccc(F)cc3)CC2)c(OC)c1OC [Lomerizine] records H1.0 immunofluorescence intensity of 100 or higher.
Found: true

Lookup: Test whether the compound Nc1ncnc2c1ncn2C1OC(CO)C(O)C1O (stereo unspecified) [Adenosine] records H1.0 immunofluorescence intensity of 100 or higher.
Found: false

Lookup: Test whether the compound CNCC(O)c1ccc(O)c(O)c1.O=C(O)C(O)C(O)C(=O)O (single isomer, unassigned; (-)) [(-)-Epinephrine bitartrate] records H1.0 immunofluorescence intensity of 100 or higher.
Found: false

Lookup: Test whether the compound CS(=O)(=O)N1CCN(Cc2cc3nc(-c4cccc5[nH]ncc45)nc(N4CCOCC4)c3s2)CC1 records H1.0 immunofluorescence intensity of 100 or higher.
Found: true

Lookup: Test whether the compound CC(Cc1ccccc1)(NC(=O)CN)c1ccccc1.Cl (stereo unspecified) records H1.0 immunofluorescence intensity of 100 or higher.
Found: false

Lookup: Test whether the compound CC(=O)OCC1=C(C(=O)[O-])N2C(=O)C(NC(=O)Cc3cccs3)C2SC1.[Na+] (stereo unspecified) [Cephalothin sodium] records H1.0 immunofluorescence intensity of 100 or higher.
Found: false
